Where do the numbers come from? From patent US9994881B2.

test: thioesterase activity (production of TNB at 412 nm); type: biochemical; conditions: crude cell extract; 200 μM substrate; expressed from pCA24N
Readings of Specific activities of selected thioesterases on Acetyl-CoA for the listed molecules
State just the number; it will be interpreted in μmol/mg protein/min.

Sample records with Specific activities of selected thioesterases on Acetyl-CoA:
molecule | unit.symbol | experimental.value
YdiI: E. coli Acyl-CoA thioesterase (protein, UniProt P77781 1-136, looked up) 1,4-dihydroxy-2-naphthoyl-CoA …: MIWKRKITLEALNAMGEGNMVGFLDIRFEHIGDDTLEATMPVDSRTKQPFGLLHGGASVVLAESIGSVAGYLCTEGEQKVVGLEINANHVRSAREGRVRGVCKPLHLGSRHQVWQIEIFDEKGRLCCSSRLTTAIL | μmol/mg protein/min | 0.036
TesA: E. coli multifunctional acyl-CoA thioesterase I and protease I and lysophospholipase L1 (protein, UniProt P0ADA1 27-208, looked up) Thioesterase 1/protease …: ADTLLILGDSLSAGYRMSASAAWPALLNDKWQSKTSVVNASISGDTSQQGLARLPALLKQHQPRWVLVELGGNDGLRGFQPQQTEQTLRQILQDVKAANAEPLLMQIRLPANYGRRYNEAFSAIYPKLAKEFDVPLLPFFMEEVYLKPQWMQDDGIHPNRDAQPFIADWMAKQLQPLVNHDS | μmol/mg protein/min | 0.036

I am curious: what Specific activities of selected thioesterases on Acetyl-CoA value has been reported for YciA: E. coli acyl-CoA thioesterase (protein, UniProt P0A8Z0 1-132, looked up) Acyl-CoA thioester hydrolase …: MSTTHNVPQGDLVLRTLAMPADTNANGDIFGGWLMSQMDIGGAILAKEIAHGRVVTVRVEGMTFLRPVAVGDVVCCYARCVQKGTTSVSINIEVWVKKVASEPIGQRYKATEALFKYVAVDPEGKPRALPVE ? 0.222
